# Protocol: Plasma pharmacokinetics after oral dosing in NRG mice
# Assay type: in vivo
# Experimental conditions: NRG, mouse, plasma, oral; ART631 alone, single and multiple dose regimens; read-out: half-life
Recorded endpoint: half-life

# Item smiles, Value observed
rows = [
    ("C=CCO/N=C(/C[C@H]1O[C@@H]2O[C@@]3(C)CC[C@H]4[C@H](C)CC[C@@H]([C@H]1C)[C@@]24OO3)[C@H]1O[C@@H]2O[C@@]3(C)CC[C@H]4[C@H](C)CC[C@@H]([C@H]1C)[C@@]24OO3", "1.1 to 1.7 h"),
]

----------
# Protocol: Maximum tolerated dose in NRG mice
# Format: in vivo
# Experimental conditions: mouse, in vivo; NRG mice, PO x5d every 14 days; read-out: MTD, multiple dose

# Item smiles, MTD at 5 d, mg/kg/day
records = [
    ("C=CCO/N=C(/C[C@H]1O[C@@H]2O[C@@]3(C)CC[C@H]4[C@H](C)CC[C@@H]([C@H]1C)[C@@]24OO3)[C@H]1O[C@@H]2O[C@@]3(C)CC[C@H]4[C@H](C)CC[C@@H]([C@H]1C)[C@@]24OO3", 15),
]

----------
# Protocol: Plasma pharmacokinetics after oral dosing in NRG mice
# Type: in vivo
# Experimental conditions: mouse; NRG mice plasma, 15 mg/kg/d PO qd x 5 in SAV (SOR 30 mg/kg/d, VEN 150 mg/kg/d), after 5th dose
Recorded endpoint: CL/F

# Item smiles, Value observed
measured = [
    ("C=CCO/N=C(/C[C@H]1O[C@@H]2O[C@@]3(C)CC[C@H]4[C@H](C)CC[C@@H]([C@H]1C)[C@@]24OO3)[C@H]1O[C@@H]2O[C@@]3(C)CC[C@H]4[C@H](C)CC[C@@H]([C@H]1C)[C@@]24OO3", "102 mL/min/kg"),
]

----------
# Protocol: Plasma pharmacokinetics after oral dosing in NRG mice
# Type: in vivo
# Experimental conditions: mouse; NRG mice plasma, 15 mg/kg/d PO qd x 5 in SAV (SOR 30 mg/kg/d, VEN 150 mg/kg/d), after 5th dose
# Procedure: Mice were dosed orally with ART631 at empirically determined maximally tolerated doses (MTDs) of 75 mg/kg ART631 as a single dose alone or 15 mg/kg as a multiple dose regimen (once daily x5), either alone or in combination with SOR (30 mg/kg/d) and VEN (150 mg/kg/d), for side-by-side comparison to the ART838, SOR and VEN combination evaluated previously ([20]). […] ART631 was quantified in plasma as described below. […] The AUClast was calculated using the log-linear trapezoidal method. […]
Recorded endpoint: Cmax (nM)

# Item smiles, Value observed
measured = [
    ("C=CCO/N=C(/C[C@H]1O[C@@H]2O[C@@]3(C)CC[C@H]4[C@H](C)CC[C@@H]([C@H]1C)[C@@]24OO3)[C@H]1O[C@@H]2O[C@@]3(C)CC[C@H]4[C@H](C)CC[C@@H]([C@H]1C)[C@@]24OO3", 719),
]

----------
# Protocol: Plasma pharmacokinetics after oral dosing in NRG mice
# Format: in vivo
# Experimental conditions: mouse; NRG mice plasma, 75 mg/kg PO x 1
# Experimental: Mice were dosed orally with ART631 at empirically determined maximally tolerated doses (MTDs) of 75 mg/kg ART631 as a single dose alone or 15 mg/kg as a multiple dose regimen (once daily x5), either alone or in combination with SOR (30 mg/kg/d) and VEN (150 mg/kg/d), for side-by-side comparison to the ART838, SOR and VEN combination evaluated previously ([20]). […] ART631 was quantified in plasma as described below. […] The AUClast was calculated using the log-linear trapezoidal method. […]
Recorded endpoint: Cmax (µM)

# Molecule, Recorded endpoint, Value observed
rows = [
    ("C=CCO/N=C(/C[C@H]1O[C@@H]2O[C@@]3(C)CC[C@H]4[C@H](C)CC[C@@H]([C@H]1C)[C@@]24OO3)[C@H]1O[C@@H]2O[C@@]3(C)CC[C@H]4[C@H](C)CC[C@@H]([C@H]1C)[C@@]24OO3 [ART631]", "Cmax", 13.1),
]
